# measured_on: JAK2 (Homo sapiens, UniProt O60674)
# Construct: made in house; host or cells: SF9 insect cells (baculovirus)
# Sequence (O60674 812-1132): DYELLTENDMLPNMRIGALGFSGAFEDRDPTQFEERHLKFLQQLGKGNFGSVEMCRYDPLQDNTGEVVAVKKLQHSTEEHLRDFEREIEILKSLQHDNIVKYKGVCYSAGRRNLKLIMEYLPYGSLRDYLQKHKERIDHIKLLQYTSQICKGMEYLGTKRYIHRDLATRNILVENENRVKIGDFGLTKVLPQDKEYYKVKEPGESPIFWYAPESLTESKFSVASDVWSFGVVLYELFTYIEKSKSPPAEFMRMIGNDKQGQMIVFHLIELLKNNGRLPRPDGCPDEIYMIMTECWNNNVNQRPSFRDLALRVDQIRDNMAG
# measurement_protocol: JAK2 inhibition (Table 4)
# Format: biochemical
# measurement_parameters: read-out: JAK2 Ki
Items are presented alongside their recorded Ki.
# value in nM; strip the unit string

Here is how some molecules turned out for Ki.
[[record]]
molecule = "c1cc2c(ncc3ncn([C@@H]4CCCNC4)c32)[nH]1 [Example 2]"
readout_kind = "Ki"
reported_result = 518

[[record]]
molecule = "c1cc2c(ncc3ncn(C4CCN(Cc5cocn5)CC4)c32)[nH]1 [Example 90]"
readout_kind = "Ki"
reported_result = 8.75

[[record]]
molecule = "N#CCCN1CCC(n2c(CNC(=O)c3cccc(F)c3)nc3cnc4[nH]ccc4c32)CC1 [Example 505]"
readout_kind = "Ki"
reported_result = 22.4

[[record]]
molecule = "O=C(N[C@H]1CC[C@H](n2cnc3cnc4[nH]ccc4c32)CC1)OC1CCNCC1 [Example 141]"
readout_kind = "Ki"
reported_result = 23.7

[[record]]
molecule = "O=C1CC(n2cnc3cnc4[nH]ccc4c32)CCN1Cc1ccccc1 (racemic) [Example 129]"
readout_kind = "Ki"
reported_result = 57.2

[[record]]
molecule = "NC(=O)Cc1nc2cnc3[nH]ccc3c2n1C1CCN(Cc2ccccc2)CC1 [Example 245]"
readout_kind = "Ki"
reported_result = 43.1

[[record]]
molecule = "O=C(c1cccnc1)N1CCC[C@@H](n2cnc3cnc4[nH]ccc4c32)C1 [Example 31]"
readout_kind = "Ki"
reported_result = 25.9

[[record]]
molecule = "CCC(=O)N1CCC[C@@H](n2c([C@@H](C)O)nc3cnc4[nH]ccc4c32)C1 [Example 795]"
readout_kind = "Ki"
reported_result = 876


// fetch Ki given entry c1cc2c(ncc3ncn(C4CCC(N5CCOCC5)CC4)c32)[nH]1 (stereo not shown) [Example 775]
238

// fetch Ki given entry CC(C)NC(=O)Cc1nc2cnc3[nH]ccc3c2n1C1CCN(Cc2ccccc2)CC1 [Example 103]
17.3

* * *

# measured_on: JAK3 (Homo sapiens, UniProt P52333)
# Construct: made in house; host or cells: SF9 insect cells (baculovirus)
# Sequence (P52333 783-1124): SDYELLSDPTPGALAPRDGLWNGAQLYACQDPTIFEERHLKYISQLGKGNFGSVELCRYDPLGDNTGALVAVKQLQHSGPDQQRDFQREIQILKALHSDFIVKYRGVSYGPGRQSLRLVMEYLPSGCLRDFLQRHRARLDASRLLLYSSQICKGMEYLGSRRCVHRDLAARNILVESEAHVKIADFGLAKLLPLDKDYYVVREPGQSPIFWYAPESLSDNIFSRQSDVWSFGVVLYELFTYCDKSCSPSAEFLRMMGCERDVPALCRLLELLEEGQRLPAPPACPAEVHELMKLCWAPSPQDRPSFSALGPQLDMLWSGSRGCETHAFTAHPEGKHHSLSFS
# measurement_protocol: JAK3 inhibition (Table 4)
# Type: biochemical
# measurement_parameters: read-out: JAK3 Ki
Label scheme for Ki: b0 (below 70 nM), b1 (70 nM to below 500 nM), b2 (500 nM or more)

Check out these entries, answers already filled in.
[[record]]
compound = "c1cc2c(ncc3ncn(C4CCCNCC4)c32)[nH]1 (racemic) [Example 489]"
assigned_class = "b1"

[[record]]
compound = "O=C(NC1CCC(n2cnc3cnc4[nH]ccc4c32)CC1)OCc1cccnc1 (stereo not drawn) [Example 744]"
assigned_class = "b1"

[[record]]
compound = "c1cncc(Cc2nc3cnc4[nH]ccc4c3n2C2CCOCC2)c1 [Example 469]"
assigned_class = "b1"

[[record]]
compound = "CS(=O)(=O)Cc1nc2cnc3[nH]ccc3c2n1C1CCN(CCC#N)CC1 [Example 491]"
assigned_class = "b0"

[[record]]
compound = "CC(O)c1nc2cnc3[nH]ccc3c2n1C1CC2CCC1O2 (single isomer, unassigned) [Example 846]"
assigned_class = "b1"


Determine which band this compound sits in: CCS(=O)(=O)N1CCC(n2cnc3cnc4[nH]ccc4c32)CC1 [Example 442]
b1

Determine which band this compound sits in: C[C@@H](O)c1nc2cnc3[nH]ccc3c2n1[C@H]1CC[C@@H](NCC(F)(F)F)C1 [Example 1004]
b0

Determine which band this compound sits in: CS(=O)(=O)c1ccc(S(=O)(=O)N2CCC(n3cnc4cnc5[nH]ccc5c43)CC2)cc1 [Example 450]
b2

Determine which band this compound sits in: Cc1ncc(CN2CCC(n3c([C@@H](C)O)nc4cnc5[nH]ccc5c43)CC2)n1C [Example 830]
b2

Determine which band this compound sits in: CC(O)c1nc2cnc3[nH]ccc3c2n1C1CC2CCC(C1)N2 (stereo not drawn) [Example 919]
b1

Determine which band this compound sits in: CC(C)CC(=O)N1CCC[C@@H](n2c([C@@H](C)O)nc3cnc4[nH]ccc4c32)C1 [Example 793]
b2

Determine which band this compound sits in: CC(O)c1nc2cnc3[nH]ccc3c2n1C1CC2CCC1O2 (single isomer, unassigned) [Example 937]
b1

Determine which band this compound sits in: C[C@@H](O)c1nc2cnc3[nH]ccc3c2n1[C@@H]1CCCN(C(=O)CC(F)(F)F)C1 [Example 785]
b2

Determine which band this compound sits in: CC(C)CC(=O)N[C@H]1CC[C@H](n2cnc3cnc4[nH]ccc4c32)CC1 [Example 215]
b0

Determine which band this compound sits in: N#CCCN1CCC(n2c(C3CC3(F)F)nc3cnc4[nH]ccc4c32)CC1 (racemic) [Example 404]
b0

Determine which band this compound sits in: CC(CC#N)N1CCC(n2c(C3CCOCC3)nc3cnc4[nH]ccc4c32)CC1 (racemic) [Example 393]
b0

Determine which band this compound sits in: N#CCCN1CCC(n2c(COCC3CC3)nc3cnc4[nH]ccc4c32)CC1 [Example 839]
b1

Determine which band this compound sits in: CC(C)NC(=O)Cc1nc2cnc3[nH]ccc3c2n1C1CCNCC1 [Example 261]
b1

Determine which band this compound sits in: COCC(=O)N1CCC(n2c(Cc3conc3C)nc3cnc4[nH]ccc4c32)CC1 [Example 119]
b2

Determine which band this compound sits in: CC1CNCCC1n1cnc2cnc3[nH]ccc3c21 (racemic) [Example 306]
b1

Determine which band this compound sits in: COC1CNCCC1n1cnc2cnc3[nH]ccc3c21 (racemic) [Example 537]
b1

Determine which band this compound sits in: C[C@H](O)c1nc2cnc3[nH]ccc3c2n1C1CCOCC1 [Example 543]
b1

Determine which band this compound sits in: FC(F)(F)c1nc(CN2CCC(n3cnc4cnc5[nH]ccc5c43)CC2)cs1 [Example 295]
b0

Determine which band this compound sits in: CC1(n2cnc3cnc4[nH]ccc4c32)CCN(S(=O)(=O)c2cccnc2)CC1 [Example 753]
b1

Determine which band this compound sits in: O=C(NCCc1nc2cnc3[nH]ccc3c2n1[C@@H]1CCCOC1)C1CC1 [Example 863]
b2

Determine which band this compound sits in: c1cc2c(ncc3ncn([C@H]4CC[C@H](NCC5CC5)CC4)c32)[nH]1 [Example 574]
b1

* * *

Items are presented alongside their recorded Ki.
# measured_on: TYK2 (Homo sapiens, UniProt P29597)
# Sequence (P29597 873-1187): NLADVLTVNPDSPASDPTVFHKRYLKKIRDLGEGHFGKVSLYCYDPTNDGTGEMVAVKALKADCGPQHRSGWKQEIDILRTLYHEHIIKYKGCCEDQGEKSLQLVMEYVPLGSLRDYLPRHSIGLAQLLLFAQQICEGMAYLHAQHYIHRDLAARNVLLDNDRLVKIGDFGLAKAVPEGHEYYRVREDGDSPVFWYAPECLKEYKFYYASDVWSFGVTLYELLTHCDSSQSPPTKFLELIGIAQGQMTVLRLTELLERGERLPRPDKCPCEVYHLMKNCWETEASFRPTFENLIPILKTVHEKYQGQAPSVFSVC
# value in nM; strip the unit string

// fetch Ki given entry CN1CC(c2nc3cnc4[nH]ccc4c3n2C2CCN(CCC#N)CC2)CC1=O (racemic)
526

// fetch Ki given entry CS(=O)(=O)NCc1nc2cnc3[nH]ccc3c2n1C1CCN(CCF)CC1
116

// fetch Ki given entry c1cc2c(ncc3ncn([C@H]4[C@@H]5CNC[C@@H]54)c32)[nH]1
1810

// fetch Ki given entry Cc1nc2cnc3[nH]ccc3c2n1C1(C)CCN(S(=O)(=O)c2cccnc2)CC1
296

// fetch Ki given entry N#CCCN1CCC(n2c(CCNC(=O)C3CC3)nc3cnc4[nH]ccc4c32)CC1
185

* * *

Items are presented alongside their recorded pKi.
# measured_on: JAK3 (Homo sapiens)
# Construct: made in house; host or cells: SF9 insect cells (baculovirus)
# measurement_protocol: JAK3 inhibition (Table 4)
# Type: biochemical
# measurement_parameters: read-out: JAK3 Ki
Here pKi is given on a logarithmic scale as minus log10 of the concentration in mol/L.

[[record]]
compound = "COC(=O)N1CCCC(n2c([C@@H](C)O)nc3cnc4[nH]ccc4c32)C1 (stereo partly shown) [Example 670]"
reported_result = 5.66

[[record]]
compound = "O=S(=O)(Cc1ccccc1)N1CC[C@@H](n2cnc3cnc4[nH]ccc4c32)C1 [Example 435]"
reported_result = 6.65

[[record]]
compound = "CC(C)(O)c1nc2cnc3[nH]ccc3c2n1C1CCN(CCC#N)CC1 [Example 335]"
reported_result = 7.17

[[record]]
compound = "Cc1nc2cnc3[nH]ccc3c2n1[C@@H]1CC[C@@H](NC(=O)CC(F)(F)F)C1 [Example 624]"
reported_result = 7.86

[[record]]
compound = "CC(O)c1nc2cnc3[nH]ccc3c2n1CC1CCCO1 (stereo not shown) [Example 700]"
reported_result = 6.26

[[record]]
compound = "CC1CN(S(C)(=O)=O)CCC1n1cnc2cnc3[nH]ccc3c21 (racemic) [Example 344]"
reported_result = 7.09


// fetch pKi given entry CC(O)c1nc2cnc3[nH]ccc3c2n1C1CCCN(C(=O)C2CC(=O)N(C)C2)C1 (stereo not shown) [Example 787]
5.60

// fetch pKi given entry CC(C)OC(=O)N[C@H]1CC[C@H](n2cnc3cnc4[nH]ccc4c32)CC1 [Example 310]
6.67

// fetch pKi given entry CCN1CCC(n2c(C)nc3cnc4[nH]ccc4c32)C(F)(F)C1 (racemic) [Example 531]
8.37

// fetch pKi given entry Cc1nc2cnc3[nH]ccc3c2n1C1CCC(NC(=O)N(C)CC(F)F)CC1 (stereo not shown) [Example 750]
7.75

Entry source: patent US8461328B2
